# testedSystem: SpLsb4
# assay: SPOT peptide array binding signal intensity (averaged, normalized) (arbitrary units (background-subtracted, floor 0; scale differs between SH3 domains)); higher = stronger binding of the SH3 domain to the peptide
Criterion: SPOT peptide array binding signal intensity meeting or surpassing 30. Met: Criterion met. Not met: Criterion not met.

INSERT INTO results (binder, assignedlabel) VALUES
  ('VNFRRIPTGPDSPPT', 'Criterion not met'),
  ('SNRRPVPRRPSQPLN', 'Criterion met'),
  ('YHSRRHPLALGFKYV', 'Criterion not met'),
  ('ISRRRLPVIMHRLKM', 'Criterion met'),
  ('LKQRFFLMFPKSIIW', 'Criterion met'),
  ('KTITLEVESSDTIDN', 'Criterion not met'),
  ('NFKRLLPRDPSEKSS', 'Criterion not met'),
  ('RMVRRRPLRVQFSAR', 'Criterion met');

Origin of the recorded values: the supplement of paper PMC4466140
